biological target: CDK9/CycT1 (Homo sapiens); construct: Recombinant full-length His-tagged human CDK9 and CycT1; His; purchased Invitrogen PV4131; host or cells: insect cells; assay: CDK9/CycT1 kinase assay (Method 1a); format: biochemical; details: 10 μM ATP
Sequence (P50750 whole entry): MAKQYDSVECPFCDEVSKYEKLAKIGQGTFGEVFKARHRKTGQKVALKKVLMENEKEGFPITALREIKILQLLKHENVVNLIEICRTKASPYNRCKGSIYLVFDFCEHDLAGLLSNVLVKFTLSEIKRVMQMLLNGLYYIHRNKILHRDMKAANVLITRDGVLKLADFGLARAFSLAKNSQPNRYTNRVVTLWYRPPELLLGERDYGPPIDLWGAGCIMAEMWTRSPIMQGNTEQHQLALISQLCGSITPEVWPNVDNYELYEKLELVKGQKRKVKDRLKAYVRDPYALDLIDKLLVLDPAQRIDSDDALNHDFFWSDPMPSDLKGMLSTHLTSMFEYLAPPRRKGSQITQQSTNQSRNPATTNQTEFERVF
Sequence (O60563 whole entry partner): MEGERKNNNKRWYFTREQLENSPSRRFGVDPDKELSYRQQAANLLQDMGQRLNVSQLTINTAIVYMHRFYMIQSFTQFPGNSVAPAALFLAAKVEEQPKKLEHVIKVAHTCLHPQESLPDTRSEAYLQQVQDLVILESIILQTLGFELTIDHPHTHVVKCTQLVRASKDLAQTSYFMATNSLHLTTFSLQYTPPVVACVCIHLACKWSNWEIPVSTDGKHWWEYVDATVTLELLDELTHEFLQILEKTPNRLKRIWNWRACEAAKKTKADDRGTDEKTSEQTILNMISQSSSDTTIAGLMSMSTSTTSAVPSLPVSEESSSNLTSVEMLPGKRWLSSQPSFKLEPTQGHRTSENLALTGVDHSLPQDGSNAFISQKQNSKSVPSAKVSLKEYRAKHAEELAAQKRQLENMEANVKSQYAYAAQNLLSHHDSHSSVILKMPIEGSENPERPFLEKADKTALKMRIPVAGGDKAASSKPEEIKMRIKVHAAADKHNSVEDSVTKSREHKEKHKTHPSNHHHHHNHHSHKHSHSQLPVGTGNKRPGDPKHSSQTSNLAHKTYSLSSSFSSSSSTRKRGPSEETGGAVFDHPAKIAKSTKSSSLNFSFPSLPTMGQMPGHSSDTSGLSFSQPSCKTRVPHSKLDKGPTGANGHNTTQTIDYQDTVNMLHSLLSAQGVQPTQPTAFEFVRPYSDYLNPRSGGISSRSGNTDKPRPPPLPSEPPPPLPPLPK
Would you kindly list pIC50 for each of these compounds?
Numbers only, as −log10 of the molar value.

Consider the worked cases shown below.
>>> observed_measurement("COc1cc(F)ccc1-c1cc(Nc2cc(CS(C)(=N)=O)cc(C)n2)ncn1 (single isomer, unassigned) [Example 9]")
8.40
>>> observed_measurement("COc1cc(F)ccc1-c1cc(Nc2cc(CS(C)(=N)=O)cc(Cl)n2)ncn1 (single isomer, unassigned) [Example 6]")
8.40

Now let's try a different one.
Record COc1cc(F)ccc1-c1cc(Nc2cc(CS(C)(=N)=O)cc(C)n2)ncn1 (racemic) [Example 7] . Reported pIC50: 8.30
